Tested on: 621-102 (TSC2-deficient);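 note: immortalized renal angiomyolipoma cells stably carrying empty vector or TSC2, dosed in 384-well plates in DMEM, viability normalized to vehicle-treated wells within each plate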
PROCEDURE_DETAILS: relative viability vs DMSO; higher = less cytotoxic
ASSAY_CONDITIONS: 10 µM; serum: 10% FBS; 72 h
Structures can show the parent of a compound that is named as a salt.
EXPERIMENTAL_ENDPOINT: relative viability (%)
Report only the number, with the unit % understood.

Ask: What value of relative viability has been recorded for this entry: Cn1c(=O)c(F)c(Nc2ccc(I)cc2F)c2c(=O)n(C[C@@H](O)CO)cnc21 [TAK-733]
Result: 54.3

Ask: Thanks! And CCOc1ccccc1OCCN[C@H](C)Cc1ccc(OC)c(S(N)(=O)=O)c1 [Tamsulosin HCl] ?
Result: 98.4

Ask: Thanks! And COc1ccccc1N1CCN(CCN(C(=O)C2CCCCC2)c2ccccn2)CC1 ?
Result: 99.4

Ask: Thanks! And CCc1nc(N)nc(N)c1-c1ccc(Cl)cc1 [Pyrimethamine] ?
Result: 93.1

Ask: Thanks! And Cn1c(Nc2ccc(C(F)(F)F)cc2)nc2cc(Oc3ccnc(-c4ncc(C(F)(F)F)[nH]4)c3)ccc21 [RAF265] ?
Result: 41.5
